assay: viability loss in pontine glioma line – cell-based, SU-DIPG-XVII, MIPE5.0, CellTiter-Glo, qHTS, dose response (AID 1347060); conditions: CellTiter-Glo ATP luminescence;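 also: cells exposed to compound for 48 hours before viability readout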
Inconclusive results are not listed. Calls of active or inactive are those of the source. The limit is not given here; nearly all actives have AC50 up to about 26 µM.
quantity: AC50

Quickly give me recorded AC50 for COc1cc(Nc2ncc(F)c(Nc3ccc4c(n3)NC(=O)C(C)(C)O4)n2)cc(OC)c1OC 1180 nM (active)

Please give measured AC50 of the following entry: Cc1cc(N2CCOCC2)ccc1Nc1nc(NC2CCCCC2)c2[nH]cnc2n1 2350 nM (active)

Please look at this compound and report its AC50: CCNC(=O)Nc1ccc(-c2nc3c(c(N4CCOC[C@@H]4C)n2)CCN(C2COC2)C3)cc1 2950 nM (active)

Dear colleague, please send me the reported AC50 for Cc1cnc(Nc2cccc(CN3CCOCC3)c2)nc1Nc1cccc(S(=O)(=O)NC(C)(C)C)c1 when you can. 332 nM (active)

Give AC50 for the following compound: Cc1c(CN2CCN(S(C)(=O)=O)CC2)sc2c(N3CCOCC3)nc(-c3cnc(N)nc3)nc12 661 nM (active)

###

test: compounds altering Cy5-DNA-NS3h complex signal – biochemical, LOPAC1280, artefact control for HCV NS3 helicase inhibitor project (AID 687037); conditions: Cy5-DNA-NS3h complex fluorescence interference counterscreen
The source made the active and inactive calls. How the calls were made is not given here.
Just give me one of these, please: Yes (active), No (inactive)

Give the logged outcome of this assay for the following compound: COc1cc2nc(N3CCCN(C)CC3)nc(NC3CCN(Cc4ccccc4)CC3)c2cc1OC No

Returns: the outcome recorded for CC(C)(C)NCC(O)COc1nsnc1N1CCOCC1 (stereo unspecified) in this assay. No

Which outcome was assigned to CNC(=O)[C@H]1O[C@@H](n2cnc3c(NCc4cccc(I)c4)ncnc32)C(O)[C@H]1O (stereo partly specified) in this test? No

Look up the recorded call for CCCCCCCCCCC/C=C\C(C)(C)/C=C\CCCC(=O)O in this test. No

Dear all, I need the recorded test outcome for CC1(C)CCC2=C(O1)c1ccccc1C(=O)C2=O , thank you. No

Returns: the outcome recorded for N#C/C(=C\c1ccc(-c2cc(Cl)ccc2Cl)o1)C(=O)Nc1cccc2ncccc12 in this assay. Yes

###

experiment: CRL1545 cell growth, single agent and combined, cisplatin and BGB IC20 combos (AID 1671464); conditions: CRL1545 osteosarcoma cells, measured here: with BGB IC20 combination, at 0.5 µM, stronger effect = higher value;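 also: cells exposed to compound for 96 hours before readout; 0% = vehicle DMSO and 100% = high DMSO killing control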
quantity: inhibition (%)
Your answer is read as %, so omit the unit and give the number.

Please report the measured inhibition for O=C(CCCCCCNC(=O)c1cnc(N(c2ccccc2)c2ccccc2Cl)nc1)NO 16.7

Report measured inhibition; entry is O=c1[nH]c([C@@H]2CCCN2)nc2c1oc1ccc(Cl)cc12 -65.7

Return inhibition for the following molecule: CC(=O)Nc1nc(C)c(-c2ccc(Cl)c(S(=O)(=O)NCCO)c2)s1 -13.7

Tell me inhibition reported for C[C@]12CCCN1CC1=NNC(=O)c3cc(F)cc4[nH]c2c1c34 -8.07

Specify measured inhibition for O=C(O)CO.[NH2-].[NH2-].[Pt+2] . -12.1

Retrieve inhibition measured for Cc1cn([C@@H]2O[C@H](CO)[C@@H](O)[C@@H]2F)c(=O)[nH]c1=O and print it. 6.33

Answer with the recorded inhibition of NC(=O)c1nc(F)c[nH]c1=O only. 6.76

Query inhibition for O=C(O)[C@H](Cc1c[nH]c2ccccc12)N1C(=O)c2ccccc2C1=O -34.3

Look up and state reported inhibition for Nc1nc2n[nH]nc2c(=O)[nH]1 -2.71

Entry CO[C@H]1/C=C/O[C@@]2(C)Oc3c(C)c(O)c4c(O)c(c(/C=N\N5CCN(C6CCCC6)CC5)c(O)c4c3C2=O)NC(=O)/C(C)=C\C=C\[C@H](C)[C@H](O)[C@@H](C)[C@@H](O)[C@@H](C)[C@H](OC(C)=O)[C@@H]1C needs its inhibition filled in; supply it. 23.5

Identify measured inhibition associated with Nc1nc(OCc2cc(Br)cs2)c2[nH]cnc2n1 -32.5

Return the recorded inhibition value; entry: COc1ccc(C(=O)CC2(O)C(=O)Nc3c(Cl)ccc(Cl)c32)cc1 (stereo not given) 16.2

Identify the reported inhibition for the following entry. Nc1ncnc2c1c(-c1cnc3[nH]ccc3c1)nn2C1CCCC1 -19

Give a short answer stating reported inhibition for O=c1[nH]cnc2ccccc12 . -3.84

Complete the entry with inhibition for CC(=O)[C@]1(N)Cc2c(O)c3c(c(O)c2[C@@H](O[C@H]2C[C@H](O)[C@H](O)CO2)C1)C(=O)c1ccccc1C3=O -1.69

Give the measured inhibition for O=c1cc(N2CCOCC2)oc2c1ccc1ccccc12 -23.5

Note down inhibition recorded for NC1CCC(N[C@@H]2C[C@H]2c2ccccc2)CC1 (stereo not given in full) -47.5

Give the reported inhibition for this molecule. Cc1ccc([N+](=O)[O-])cc1S(=O)(=O)N(C)/N=C/c1cnc2ccc(Br)cn12 98.1

Specify inhibition for CS(=O)(=O)c1ccc(-c2nnc(/C=C/c3nnc(-c4ccc(C#N)cc4)o3)n2-c2ccccc2Cl)nc1 and stop. -43.6

Check the records and state inhibition for CN[C@@H]1CN(c2ccc3c(=O)c(C(=O)O)cn(-c4nccs4)c3n2)C[C@H]1OC 16.9

###

assay: viability loss with induced miR-34 in A549 – imaging, A549 dox-inducible miR-34, nuclei and caspase counts, primary screen (AID 1347080); settings: A549 miR-34 inducible, Hoechst nuclei count, 48 h; measured here: relative caspase fold change +Dox/-Dox
quantity: fold change
Give the figure by itself; no unit, no explanation.

Determine from records and report fold change for O=C(Nc1ccccc1-c1cn2c(CN3CCNCC3)csc2n1)c1cnc2ccccc2n1 0.998

Let me know recorded fold change for c1ccc(CNc2nc(NCc3ccccc3)c3ccccc3n2)cc1 , thanks. 0.477

Tell me its fold change given O=C(Nc1cccc(Nc2ncc(Br)c(NCCc3cnc[nH]3)n2)c1)N1CCCC1 as the entry. 0.914

Let me know recorded fold change for COc1ccc(-c2cnc3c(-c4cccc5ncccc45)cnn3c2)cc1 , thanks. 0.646

Indicate the recorded fold change value for this compound: COc1ccc2cccc(N3CCN(CCNC(=O)c4ccc(F)cc4)CC3)c2c1 0.854

Specify measured fold change for CCCCC[C@H](O)/C=C/[C@H]1C(=O)C[C@H](O)[C@@H]1CCCCCCC(=O)O . 0.486

For the compound CCCCN=C(N)NO , report fold change. 1.14

Output fold change of CCCCn1c(=O)c2[nH]c(C34CC5CC(CC3C5)C4)nc2n(CCCO)c1=O 1.81

Report measured fold change; entry is O=C(O)CCC/C=C\C[C@@H]1[C@@H](/C=C/[C@@H](O)COc2ccccc2)[C@H](O)C[C@@H]1O 1.11

Return fold change (reported value) for this compound: CCCCC[C@H](O)/C=C/[C@H]1C=CC(=O)[C@H]1CCCCCCC(=O)O 1.97

###

assay: viability loss in pontine glioma line – cell-based, JHH-DIPG-1, MIPE4.0, CellTiter-Glo, qHTS, dose response (AID 1347062); settings: JHH-DIPG-1 viability, CellTiter-Glo ATP luminescence;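 as to AC50: cells exposed to compound for two days before readout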
Inconclusive results are not listed. Activity calls are given as the source filed them. Cut-off not given; nearly all actives show AC50 up to about 27 µM. Where a SMILES comes first, the peptide text is derived from it. The star is where a group is joined. Cbz = O=C(OCc1ccccc1)*
Returns: one label drawn from active, inactive

Hi, do you know how O=C(O)CCCc1c[nH]c2ccccc12 came out in this test? inactive

Can you look up the reported call for COc1ccc(F)c(F)c1C(=O)c1cnc(NC2CCN(S(C)(=O)=O)CC2)nc1N for me? active

Name the outcome recorded for CC(C)C[C@@H](C=O)NC(=O)[C@H](CC(C)C)NC(=O)[C@H](CC(C)C)NC(=O)OCc1ccccc1 (Cbz-Leu-Leu-Leu-aldehyde) in the assay. active

What did this assay record as the result for O=C(CO)N1CCC(c2[nH]nc(-c3ccc(Cl)cc3)c2-c2ccncn2)CC1 ? inactive

Fill in: this test's call for CCOC(=O)[C@H]1O[C@@H]1C(=O)N[C@@H](CC(C)C)C(=O)NCCC(C)C is ___ inactive

###

assay: compounds altering HSF1 focus formation in cells – imaging, Selleck Cancer Library (AID 1347162); conditions: human cells, HSF1 nuclear foci imaging, at 10 µM; stronger effect = lower value
Answer each item with its documented plate-normalised HSF1 focus index.
Form field (numeric): enter value without unit.

Give the value of plate-normalised HSF1 focus index reported for the following: O=C(/C=C/c1cccnc1)NCCCCC1CCN(C(=O)c2ccccc2)CC1 1.05

Identify measured plate-normalised HSF1 focus index corresponding to NC1(c2ccc(-c3nc4ccn5c(=O)[nH]nc5c4cc3-c3ccccc3)cc2)CCC1 1.19

Given the compound O=C(O)[C@H](Cc1c[nH]c2ccccc12)N1C(=O)c2ccccc2C1=O , write its reported plate-normalised HSF1 focus index. 1.16

Given the compound CO[C@@H](C(=O)N1Cc2[nH]nc(NC(=O)c3ccc(N4CCN(C)CC4)cc3)c2C1)c1ccccc1 , write its reported plate-normalised HSF1 focus index. 1.1

Please supply the value of reported plate-normalised HSF1 focus index for the item CCCCn1c(=O)n(Cc2ccccc2F)c(=O)c2[nH]c(Cc3ccc(NC(C)=O)cc3)nc21 1.24
